experimental.protocol: soluble on expression in E. coli; label from the status in PepcDB or PDB records
recorded.endpoint: soluble on expression in E. coli

Worked examples follow.
MGHHHHHHSHMRGRIYLEPPTMRKKRLLDRKVLLKSDSPTGDVLLDETLKHIKATEPTETVQTWIELLTGETWNPFKLQYQLRNVRERIAKNLVEKGILTTEKQNFLLFDMTTHPVTNTTEKQRLVKKLQDSVLERWVNDPQRMDKRTLALLVLAHSSDVLENVFSSLTDDKYDVAMNRAKDLVELDPEVEGTKPSATEMIWAVLAAFNKS
not soluble
MSLSRSLDSARSFLERLEARGGREGAVLAGEFSDIQACSAAWKADGVCSTVAGSRPENVRKNRYKDVLPYDQTRVILSLLQEEGHSDYINGNFIRGVDGSLAYIATQGPLPHTLLDFWRLVWEFGVKVILMACREIENGRKRCERYWAQEQEPLQTGLFCITLIKEKWLNEDIMLRTLKVTFQKESRSVYQLQYMSWPDRGVPSSPDHMLAMVEEARRLQGSGPEPLCVHCSAGCGRTGVLCTVDYVRQLLLTQMIPPDFSLFDVVLKMRKQRPAAVQTEEQYRFLYHTVAQMFCSTLQNASEGHHHHHH
soluble
MPTPFDVTILGGGLAGRLCAWQLAQTGVPPARIAVVERGARDGSGSAAYVAAAMLAPLAEAAVADRFVVELGLASLTLWRDWLPMLRTPVFFQQAGTLVVWHPADRGEASLFANHVRAATPPERIAADLRAVDAEGIGTLEPALAQRFSQGLYLAGEGQLDNRAVLDALATELEALGVQLRWNTAVADPHPQALAAAGLGARLVLDCRGLGAQPQWPQLRGLRGEVARIHAPDVTLTRPVRMLHPRYPIYIAPKPGHVYVIGATEIESDDMSPVSVRSTLELLSAAYAVHPAFGEARVLELCTQCRPTLPDHRPAIRWDGAGTLSVNGLYRHGYMIAPAVAQAAVAAAHALLDGRAIDAPASAWPGLFAAPASPEPVLPLEHHHHHH
soluble
MGSSGGGGSGGGGVTADIGTGLADALTAPLDHKDKGLKSLTLEDSISQNGTLTLSAQGAEKTYGNGDSLNTGKLKNDKVSRFDFIRQIEVDGQLITLESGEFQVYKQSHSALTALQTEQEQDPEHSEKMVAKRRFRIGDIAGEHTSFDKLPKDVMATYRGTAFGSDDAGGKLTYTIDFAAKQGHGKIEHLKSPELNVDLAVAYIKPDEKHHAVISGSVLYNQDEKGSYSLGIFGEKAQEVAGSAEVETANGIHHIGLAAKQ
soluble

Kindly consider the entry below.
Reported soluble on expression in E. coli for `MSLSRGAGEAAYRQRLVAVGDLHGDIDNAKKTLQMARIIDDDSKWVASTDILVQTGDIVDRGAYADDIYRLMQSLRGQAASQGGKVVSILGNHEVMNAIGDWRYVTKGDIARFGGTKSRQHALSAEGWLGQEWLANYSTTALVPISPYPSSPTFSFTHGSLRPSYANLTPYPAAINDLGHSLLTKALTPPMAPPYPPNPYSGLPKGTTHEEADLYAEGGPLWWRGLAEREEAQVCEWAKNLKQKIGARRIIGGHTPNFEKIVARCNASVIIIDTGISSAYGGVLSALEIVYTLTPVDRRGRDHSQDPLLLSTSSESIAGLKGRFVEREEVHAIYEHSRKWLALEEREVVLDEGHHHHHH` : what is it?
not soluble
